Sourced from paper PMC5247395

Listed here: items and their measured Intestines.
Tested on: PC-3 PIP/flu tumor-bearing mice
Assay: Biodistribution in PC-3 PIP/flu tumor-bearing mice
Conditions: 30 min p.i., i.v.
Assay readout: Intestines (% IA/g)

molecule="O=C([O-])CN1CCN(CC(=O)[O-])CCN(CC(=O)NCC2CCC(C(=O)NC(Cc3ccc4ccccc4c3)C(=O)NCCCCC(NC(=O)NC(CCC(=O)O)C(=O)O)C(=O)O)CC2)CCN(CC(=O)[O-])CC1.[68Ga+3] (stereo not shown) [^68Ga-PSMA-617]" assay_readout=Intestines units="% IA/g" meas_value=0.98
molecule="O=C([O-])CN1CCN(CC(=O)[O-])CCN(CC(=O)NCC2CCC(C(=O)NC(Cc3ccc4ccccc4c3)C(=O)NCCCCC(NC(=O)NC(CCC(=O)O)C(=O)O)C(=O)O)CC2)CCN(CC(=O)[O-])CC1.[44Sc+3] (stereo not shown) [^44Sc-PSMA-617]" assay_readout=Intestines units="% IA/g" meas_value=1.05
molecule="O=C([O-])CN1CCN(CC(=O)[O-])CCN(CC(=O)NCC2CCC(C(=O)N[C@@H](Cc3ccc4ccccc4c3)C(=O)NCCCC[C@H](NC(=O)N[C@@H](CCC(=O)O)C(=O)O)C(=O)O)CC2)CCN(CC(=O)[O-])CC1.[177Lu+3] (stereo partly shown) [^177Lu-PSMA-617]" assay_readout=Intestines units="% IA/g" meas_value=1.13
molecule="O=C([O-])CN(CCN(CC(=O)[O-])Cc1cc(CCC(=O)NCCCCCC(=O)NCCCC[C@H](NC(=O)N[C@@H](CCC(=O)O)C(=O)O)C(=O)O)ccc1[O-])Cc1cc(CCC(=O)O)ccc1[O-].[68Ga+3] [^68Ga-PSMA-11]" assay_readout=Intestines units="% IA/g" meas_value=1.20

====

System: PC-3 PIP/flu tumor-bearing mice
Experiment: Biodistribution in PC-3 PIP/flu tumor-bearing mice
Conditions: 15 min p.i., i.v.
Assay readout: Stomach (% IA/g)

compound="O=C([O-])CN(CCN(CC(=O)[O-])Cc1cc(CCC(=O)NCCCCCC(=O)NCCCC[C@H](NC(=O)N[C@@H](CCC(=O)O)C(=O)O)C(=O)O)ccc1[O-])Cc1cc(CCC(=O)O)ccc1[O-].[68Ga+3] [^68Ga-PSMA-11]" assay_readout=Stomach meas_value=1.42
compound="O=C([O-])CN1CCN(CC(=O)[O-])CCN(CC(=O)NCC2CCC(C(=O)NC(Cc3ccc4ccccc4c3)C(=O)NCCCCC(NC(=O)NC(CCC(=O)O)C(=O)O)C(=O)O)CC2)CCN(CC(=O)[O-])CC1.[68Ga+3] (stereo not shown) [^68Ga-PSMA-617]" assay_readout=Stomach meas_value=1.48
compound="O=C([O-])CN1CCN(CC(=O)[O-])CCN(CC(=O)NCC2CCC(C(=O)N[C@@H](Cc3ccc4ccccc4c3)C(=O)NCCCC[C@H](NC(=O)N[C@@H](CCC(=O)O)C(=O)O)C(=O)O)CC2)CCN(CC(=O)[O-])CC1.[177Lu+3] (stereo partly shown) [^177Lu-PSMA-617]" assay_readout=Stomach meas_value=1.70
compound="O=C([O-])CN1CCN(CC(=O)[O-])CCN(CC(=O)NCC2CCC(C(=O)NC(Cc3ccc4ccccc4c3)C(=O)NCCCCC(NC(=O)NC(CCC(=O)O)C(=O)O)C(=O)O)CC2)CCN(CC(=O)[O-])CC1.[44Sc+3] (stereo not shown) [^44Sc-PSMA-617]" assay_readout=Stomach meas_value=2.25
